target: vesicular nucleotide transporter (VNUT) (Homo sapiens); assay: [3H]-ATP uptake in proteoliposomes with purified human VNUT
Sequence (Q9BYT1 whole entry): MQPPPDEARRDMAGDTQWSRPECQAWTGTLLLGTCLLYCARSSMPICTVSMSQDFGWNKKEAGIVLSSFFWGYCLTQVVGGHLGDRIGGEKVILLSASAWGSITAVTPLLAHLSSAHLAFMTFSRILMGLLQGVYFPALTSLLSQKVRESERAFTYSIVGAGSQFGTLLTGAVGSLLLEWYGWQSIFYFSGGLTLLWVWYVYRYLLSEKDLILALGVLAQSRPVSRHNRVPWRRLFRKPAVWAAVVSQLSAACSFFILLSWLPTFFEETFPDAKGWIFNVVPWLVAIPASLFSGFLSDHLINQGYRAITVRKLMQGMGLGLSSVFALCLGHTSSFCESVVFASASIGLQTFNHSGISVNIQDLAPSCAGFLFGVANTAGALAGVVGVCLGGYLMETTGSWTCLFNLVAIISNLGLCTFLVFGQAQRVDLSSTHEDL
Recorded endpoint: pIC50
Give bare numbers, as −log10 of the molar value.

Quick one: pIC50 for CC/C=C\C/C=C\C/C=C\C/C=C\C/C=C\CCCC(=O)O ?
7.17
